Every entry's value here was drawn from patent US20110118131A1.

Target: T1, Ep-CAM (UniProt P16422 24-265, limits assumed)
T1 construct: Immobilised on the Biacore chip; construct not described
T1 sequence (looked up): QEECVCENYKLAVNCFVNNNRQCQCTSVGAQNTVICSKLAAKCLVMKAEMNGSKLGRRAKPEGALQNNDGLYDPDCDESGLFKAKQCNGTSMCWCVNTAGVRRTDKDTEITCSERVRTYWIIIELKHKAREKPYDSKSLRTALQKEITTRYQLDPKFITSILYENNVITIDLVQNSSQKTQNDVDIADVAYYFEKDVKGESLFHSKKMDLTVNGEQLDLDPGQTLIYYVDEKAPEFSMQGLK
Test: Biacore, Fab periplasmic extract
assay metric: binding result

ING-1 Fab, light chain Y37T (Fab, V domains shown, Fab in periplasmic extract) VH: QIQLVQSGPELKKPGETVKISCKASGYTFTKYGMNWVKQAPGKGLKWMGWINTYTEEPTYGDDFKGRFAFSLETSASTANLQINNLKSEDTATYFCARFGSAVDYWGQGTSVTVSS VL: DIVMTQAAFSNPVTLGTSGSISCRSSKSLLHSNGITTLYWYLQKPGQSPQLLIYQMSNLASGVPDRFSSSGSGTDFTLRISRVEAEDVGVYYCAQNLELPRTFGGGTKLEMKR    no binding
ING-1 Fab, light chain N33V (Fab, V domains shown, Fab in periplasmic extract) VH: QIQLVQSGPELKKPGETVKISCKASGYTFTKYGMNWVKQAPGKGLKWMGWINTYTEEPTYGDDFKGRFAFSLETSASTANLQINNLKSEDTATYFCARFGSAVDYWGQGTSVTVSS VL: DIVMTQAAFSNPVTLGTSGSISCRSSKSLLHSVGITYLYWYLQKPGQSPQLLIYQMSNLASGVPDRFSSSGSGTDFTLRISRVEAEDVGVYYCAQNLELPRTFGGGTKLEMKR    no binding
ING-1 Fab, light chain L29P (Fab, V domains shown, Fab in periplasmic extract) VH: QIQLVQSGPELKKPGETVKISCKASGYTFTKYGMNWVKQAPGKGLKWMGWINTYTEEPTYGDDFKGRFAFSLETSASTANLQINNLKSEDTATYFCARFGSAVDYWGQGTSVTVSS VL: DIVMTQAAFSNPVTLGTSGSISCRSSKSPLHSNGITYLYWYLQKPGQSPQLLIYQMSNLASGVPDRFSSSGSGTDFTLRISRVEAEDVGVYYCAQNLELPRTFGGGTKLEMKR    no binding
